The reported numbers originate from paper PMC9928118.

The entries below are paired with their reported Chip Fluorescence (mean).
Tested on: GST-tagged Cn
Experiment: PEPperPRINT peptide microarray binding assay with GST-tagged Cn
Conditions: GST-tagged Cn, mean over the spots on the chip (two locations)
experimental_endpoint: Chip Fluorescence (mean)

sequence_text | system | experimental_endpoint | measured_value
TFWTNPQFKVTLEEPD [SeqRBMlowT_2957] | GST-tagged Cn | Chip Fluorescence (mean) | -0.4648
QTSCLPFPVVNSQEGQ [SeqRBM_2540] | GST-tagged Cn | Chip Fluorescence (mean) | -0.9088
TFWTNPQFKITLTEPD [SeqRBMlowT_689] | GST-tagged Cn | Chip Fluorescence (mean) | -0.78
LNLKIPEIDSSDMSAH [SeqFLNA_Erinaceus_europaeus] | GST-tagged Cn | Chip Fluorescence (mean) | 0.3599
TFWSNPQFKIKLEEED [SeqRBMlowT_8507] | GST-tagged Cn | Chip Fluorescence (mean) | -0.2464
RTYMNPFASFLDHSHR [SeqSFB3_Pseudocercospora_musae] | GST-tagged Cn | Chip Fluorescence (mean) | -0.1201

---

Test system: GST-tagged Cn
Assay: PEPperPRINT peptide microarray binding assay with GST-tagged Cn
Settings: GST-tagged Cn, max over the chip locations
Categorize each record by its Chip Fluorescence (max) using small value (below -0.2), mid value (-0.2 to below 0.1), large value (0.1 or more)

sequence_text | assigned_label
ASMSPPCINIDYAPIS [SeqRBM_1607] | mid value
TFWTNPQFKVKLTDPD [SeqRBMlowT_2929] | small value
HVSSSPDIVITPTQHR [SeqRBMlowT_1399] | large value
HSKLIPKVSIQSPVHH [SeqRBMlowT_2323] | large value
TFWANPQFRIKLEEPD [SeqRBMlowT_4612] | large value
STSSLPTFSFSSPAPS [SeqRBMlowT_801] | small value
RNYINPQAQFTYDSGA [SeqRBM_6031] | small value
HSKSIPKISIQSPVHH [SeqRBMlowT_863] | small value
LNLEIPEVRLNIISAL [SeqRBMlowT_8463] | large value
RNPGTALLTLRGHKKQ [SeqRBMlowT_5859] | mid value
RNPGQALLQLSGHKAP [SeqRBM_8761] | mid value

---

System: GST-tagged Cn
Experiment: PEPperPRINT peptide microarray binding assay with GST-tagged Cn
Conditions: GST-tagged Cn, max over the spots named in Location on chip
From the text: We then estimated in-silico the binding strength of the various peptides to Cn by template-based docking followed by flexible backbone refinement using Modeller and PepCrawler (Figs 4 and S4). […] Fig 4 Medium-throughput filtering by structural modeling and microarray screening. […] (f) Scatter plot of the sequence likelihood (normalized by length, higher is better) against fluorescence level (higher is better, see Methods for details of the data analysis). […]
experimental_endpoint: Chip Fluorescence (max)

sequence_text | measured_value
TFHLNPQYRITLEDPD [SeqCAPN11_Daphnia_magna_3] | 1.7985
NNSESPKIAITTTLGN [SeqRBM_1677] | 1.504
PFEKNDIQQIHLEEHP [Seqshuffled_9861] | 1.396
NAWKNPGQETHTTKKL [Seqshuffled_9929] | 1.453
SSMAPPAINIDFAPTN [SeqRBMlowT_1806] | 1.404
PSDDQPGIVVHPCEED [SeqRBMlowT_365] | 1.806
TFWTNPQYRIKLEEED [SeqRBMlowT_1298] | 1.462
STSSLPTFSFSPPAPS [SeqRBMlowT_2355] | 1.468
GGPGTPGRQGQPLAPS [SeqRBMlowT_7795] | 1.388
SSLECPHVQVTVSGQR [SeqRBM_6881] | 1.51
HVEDTTEFALQRPSND [Seqshuffled_9422] | 1.612
ESLWIPNATPTNFGVY [SeqRBM_4910] | 1.643
HVSSSVDIVITPTQHR [SeqRBMlowT_8839] | 1.415
ATSGTFPQTEGSHKKQ [SeqRBMlowT_5854] | 1.785
KAYMCPAVSFQDGGRR [SeqRBMlowT_4017] | 1.6
TFWTNPQYRVTVTDPD [SeqRBMlowT_615] | 1.649
PQPSVQSAEFMEFVGH [Seqshuffled_8788] | 1.4183
APSSWPSIVVSPPELN [SeqRBM_1086] | 1.655
PALYDNALGIESFTLS [SeqCRZ1_Penicillium_arizonense] | 1.355
PQMAPPAINIDFAPTN [SeqRBMlowT_2475] | 1.458
KSKAAPSIVIHIPEEA [SeqRBM_8661] | 1.362
TFWINPQFKVRLDEID [SeqCAPN11_Boiga_irregularis] | 1.765
TFWTNPQFRLKLIDPD [SeqRBMlowT_9197] | 1.422
TFWSNPQFKITLDEPD [SeqRBMlowT_5518] | 1.348
GGESQPGIVVHVCEED [SeqRBMlowT_2505] | 1.711
ADEANPEITITPAELP [SeqRBMlowT_369] | 1.463

---

System: GST-tagged Cn
Test: PEPperPRINT peptide microarray binding assay with GST-tagged Cn
Settings: GST-tagged Cn, mean over the duplicate spots (Location on chip)
Chip Fluorescence (mean) under 0.3 gets Fulfilled, anything at or over 0.3 gets Not fulfilled.

sequence_text | assigned_label
PSLYENALGMESFTIS [SeqRBMlowT_2807] | Fulfilled
RTYINPFMLFEDMGSR [SeqRBM_7588] | Fulfilled
PNGSNPETVIKPDWTE [SeqRBM_275] | Not fulfilled
TFWTNPQFRIKLEDED [SeqRBMlowT_645] | Not fulfilled
GGPSTPGRQNNPLAPS [SeqRTS1_Zymoseptoria_tritici] | Fulfilled
RNPGTFLLTLRGHKKQ [SeqRBMlowT_5813] | Not fulfilled
TFWTNPQYRITLEDPD [SeqRBMlowT_604] | Fulfilled
SSSAAPEIVVSKPEHN [SeqRBMlowT_9785] | Fulfilled
ADETQPGIVVHVCELP [SeqRBMlowT_352] | Not fulfilled
YCQWSNRATQIGHKPT [Seqrandom_9979] | Fulfilled
TFWSNPQYRITLEDPD [SeqRBMlowT_78] | Not fulfilled
SSMAQPAINIDFAPTN [SeqRBMlowT_2450] | Fulfilled
LSLYVNALGMESFTIS [SeqRBM_9141] | Not fulfilled
HPYMGPKIQFHSGGRK [SeqRBM_457] | Not fulfilled

---

Tested on: GST-tagged Cn
Assay: PEPperPRINT peptide microarray binding assay with GST-tagged Cn
Conditions: GST-tagged Cn, mean over the duplicate spots (Location on chip)

sequence_text | system | Chip Fluorescence (mean)
PNKICGQRSFDGEHQN [Seqshuffled_9648] | GST-tagged Cn | -0.254
TFWTNPQFKFRLEDPD [SeqRBMlowT_7471] | GST-tagged Cn | 0.6593
GNKEFSPLNVEGLSGN [Seqshuffled_9463] | GST-tagged Cn | 0.833
HIIIVWAVSEVKYVQL [Seqrandom_9992] | GST-tagged Cn | 0.6897
ADEAVPLIDIAMAEYP [SeqRBM_3950] | GST-tagged Cn | 0.7456
YRQAVRFEMPLTACAP [Seqrandom_9969] | GST-tagged Cn | 0.771
GFETTPSIVVHVCEED [SeqRBMlowT_1939] | GST-tagged Cn | 0.4497
GSLLIPHCDMSAGGSY [SeqRBM_2528] | GST-tagged Cn | -0.05077
GAYMCPFMSWQDCGQR [SeqRBMlowT_4796] | GST-tagged Cn | 0.4498
FTMKFAWALPQCYVHC [Seqrandom_9941] | GST-tagged Cn | 0.4694
SSLYENALGIESFTLS [SeqRBMlowT_2888] | GST-tagged Cn | 0.9732
RQPGQALLELRGHSAS [SeqRBMlowT_7735] | GST-tagged Cn | 0.19
RAYINPFMQFTFDSNK [SeqRBMlowT_4738] | GST-tagged Cn | 0.6521
PTNGIPEMQRNSAKSA [Seqshuffled_9538] | GST-tagged Cn | 0.992
PSIYQEVLGIGNFSLS [SeqRBMlowT_4899] | GST-tagged Cn | 0.7614
LSSSNPEITVTPAELD [SeqRBMlowT_6234] | GST-tagged Cn | -0.4808
TFWMNPQYRITLEEPD [SeqRBMlowT_2265] | GST-tagged Cn | 0.1767
HDLQCVINLHENACKT [Seqrandom_9996] | GST-tagged Cn | -0.1329
HSKLIPKLSIQSPVEH [SeqRBMlowT_3447] | GST-tagged Cn | 0.373
RTYINPFMQFTYDGRR [SeqRBMlowT_4071] | GST-tagged Cn | 1.243
FQTDAPTIPIDQAPIC [SeqRBM_9788] | GST-tagged Cn | 0.3576
DCIGFCSVPVMYAPNH [Seqrandom_1239] | GST-tagged Cn | -0.3019
ADEATPSIVVHVCELP [SeqRBMlowT_118] | GST-tagged Cn | 0.5506
KADYTISLILHYDAIE [Seqshuffled_9660] | GST-tagged Cn | 0.7325
PMKTRGLYGWPPCAKW [Seqrandom_5226] | GST-tagged Cn | 0.996
STASLPSFNFSFLTSS [SeqNUP153_Antrostomus_carolinensis] | GST-tagged Cn | -0.1064
RNPGSPVLVLEGHSAA [SeqYPL247C_Zygosaccharomyces_parabailii] | GST-tagged Cn | -0.2767
RFYINPFVQFSDGGNN [SeqRBM_1053] | GST-tagged Cn | -0.5027
TFMMNPQYRLYKSVSP [SeqRBM_6553] | GST-tagged Cn | 0.3935
RAYDNPVFSFTFDSKG [SeqRBM_7566] | GST-tagged Cn | 0.4256
KKMSPPCITITPAPGA [SeqRBMlowT_7625] | GST-tagged Cn | -0.7518
LNDEIPEVRLNIISAL [SeqRBMlowT_4170] | GST-tagged Cn | -0.4845
RMYINPFVQFIDGGNR [SeqSFB3_Mycena_chlorophos] | GST-tagged Cn | -0.09268
RNPESPVLELEGHSAS [SeqRBMlowT_6180] | GST-tagged Cn | 0.5231
STPLPQGAPISPNTLA [Seqshuffled_9522] | GST-tagged Cn | -0.4537
TFWSNPQFKITLEEPD [SeqRBMlowT_5528] | GST-tagged Cn | 0.877
LLDNVPAVHVHDMGGH [SeqRBM_9035] | GST-tagged Cn | 0.6608
KAYMCPYGSFTYGGRR [SeqRBM_3412] | GST-tagged Cn | 0.9697
ASEANPEITVTPAELP [SeqRBMlowT_1250] | GST-tagged Cn | -0.04845
LMDLCPVVRLQIISAL [SeqRBM_7616] | GST-tagged Cn | 0.2546
YTQIFPKCAMTIIKRK [Seqrandom_9966] | GST-tagged Cn | 0.5369
STSSLPTFSFSSPLSS [SeqRBMlowT_2357] | GST-tagged Cn | 0.4296
KKMAPPAINIDPAPTN [SeqRBMlowT_321] | GST-tagged Cn | -0.1981
PGQMQPSINVMAEKNP [SeqRBM_977] | GST-tagged Cn | -0.5544
RAYMNPSVCFTDGGAR [SeqRBM_6787] | GST-tagged Cn | 0.3113
QWSLGVGIVITVTETM [SeqRBM_1755] | GST-tagged Cn | 0.7956
KAYMCPYMQFIAGGRK [SeqRBM_8989] | GST-tagged Cn | 0.7869
KNARGPLIIIHPMEED [SeqRBM_1913] | GST-tagged Cn | 1.192
KAYMCPFMQFIDGGRR [SeqRBMlowT_502] | GST-tagged Cn | -0.1535
TFWTNPQFRITLEEPD [SeqRBMlowT_11] | GST-tagged Cn | 0.7438
TFFINPQFKASLTEMD [SeqRBM_564] | GST-tagged Cn | 0.5882
RAYKNPFMQFDLDSSL [SeqRBM_8076] | GST-tagged Cn | 1.346
